test: NCI Yeast Anticancer Drug Screen. Data for the rad50 strain (AID 155);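 note: 0% = growth of vehicle-only cultures of the same strain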; conditions: S. cerevisiae rad50 strain growth inhibition; at 50.0 µM; hits give high values
About 79,000 compounds went through this panel and 15% of them were active in at least one assay; those are over-represented in the sample as a whole.
Binary call on growth inhibition: true (1) from 30% upward, false (0) beneath that.

{"compound": "Cc1[nH]nc(C(=O)N/N=C/c2ccccc2Cl)c1N=NN(C)C", "groupLabel": "true (1)"}

Determine whether measured growth inhibition meets or exceeds 30% for `CCNC(=S)NC1CCCCCCCCCCC1` true (1)

Assess whether reported growth inhibition for `CC(=O)c1cccc([N+](=O)[O-])c1` sits at 30% or higher. false (0)

Exam item: decide whether the reported growth inhibition for `CCCCC(CC)(COC(C)=O)COC(C)=O` is at least 30%. false (0)

Is the recorded value of growth inhibition equal to or greater than 30% for this compound? `Cc1ccc(N=Nc2ncccc2O)cc1C` true (1)

Hi team, for `CCOC(=O)C(C)(C)C` , is the recorded growth inhibition at or above 30%? false (0)

hey, is growth inhibition for this one >= 30%? `S=C(Nc1ccccc1)SCc1ccc(Cl)cc1` true (1)

# bool: growth inhibition of `O=C(Nc1cccc(NC(=O)c2cc(=O)c3ccccc3o2)n1)c1cc(=O)c2ccccc2o1` >= 30% true (1)

// inclusive: growth inhibition at least 30%? input: CC(C)(CN1CCCCC1)C(=O)CC(SCCS(=O)(=O)O)c1ccc(Cl)c(Cl)c1 (stereo unspecified) true (1)

Check the entry CC(=O)OC1C(O)C(C)OC(OC(=O)C2CCC3C(C2)OC2(CC(OC(=O)/C=C/c4ccccc4)C(C)CO2)C32CO2)C1OC1OC(C)C(O)C(O)C1O (stereo unspecified) : does growth inhibition equal or exceed 30%? true (1)

----------
assay: NCI Yeast Anticancer Drug Screen. Data for the sgs1 mgt1 strain (AID 161);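 note: 0% = growth of cultures given vehicle only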; details: S. cerevisiae sgs1 mgt1 strain, at 50.0 µM (retest, dose inferred, filed as 5.0), hits give high values
The panel holds about 79,000 compounds, 15% with a hit somewhere; the sample as a whole holds those more often.
Kindly supply the reported growth inhibition values for the records listed here.
Answers are plain numbers, in %.

Example entries and their recorded answers appear below.
{"compound": "ClC1(c2ccccc2)c2ccccc2-c2ccccc21", "growth inhibition (%)": 98}
{"compound": "CC1CCN(CCCOC(=O)c2ccccc2)CC1", "growth inhibition (%)": 66}

Here are 3 compounds. What values of growth inhibition were reported for them?
1. CC(NC(=O)OC(C)(C)C)C(=O)NC(Cc1ccccc1)C(=O)NCC(=O)Oc1c(Cl)c(Cl)c(Cl)c(Cl)c1Cl (stereo not given)
2. CSC(C=P(c1ccccc1)(c1ccccc1)c1ccccc1)=Nc1ccccc1
3. O=c1cc(N=Nc2ccc(Cl)c(Cl)c2)[nH]c(=O)[nH]1

1. 72
2. 98
3. 97

Hi, could you look up growth inhibition for each item in my list?
1. COc1ccc(OC2OC(COC(c3ccccc3)(c3ccc(OC)cc3)c3ccc(OC)cc3)C(O)C(O)C2O)cc1 (stereo not given)
2. CC1C(=O)C(Br)CC2C1(C)CCC1C2(C)CCC2(C)C3CC(C)(C)CCC3(C)CCC12C (stereo not given)
3. O=C1C=CC(=O)c2nc3c(nc21)[nH]c1ccccc13
4. COc1ccccc1NC(=O)CC(=O)N1N=C(C)C(N=Nc2ccc(I)cc2)C1=O (stereo not given)
5. C=CCCCCn1c2ccccc2c2c(C)c3c[n+](C)ccc3c(C)c21

[69, -13, 95, 28, 97]

----------
experiment: NCI Yeast Anticancer Drug Screen. Data for the mec2-1 strain (AID 157); settings: S. cerevisiae mec2-1 strain, at 50.0 µM, hits give high values
About 79,000 compounds went through this panel and 15% of them were active in at least one assay; those are over-represented in the sample as a whole.
Binned growth inhibition; ranges: bottom bin = under 30%, middle bin = from 30% up to 90%, top bin = 90% and over

{"compound": "CC(C)=CCc1ccc(O)cc1", "groupLabel": "bottom bin"}
{"compound": "Cn1c(=S)c2[nH]c(SCc3ccncc3)nc2n(C)c1=O", "groupLabel": "middle bin"}
{"compound": "Cc1c(-c2ccccc2)sc(/N=C/c2cc(Br)cc(Br)c2O)c1C#N", "groupLabel": "bottom bin"}
{"compound": "Nc1cccc2c1[nH]c(=O)c1ccccc12", "groupLabel": "middle bin"}
{"compound": "COc1ccc(N=Nc2ccc3oc(=O)c(C(=O)Nc4ccccc4C)cc3c2)cc1", "groupLabel": "top bin"}

Which class holds `COc1ccc(-c2nc(C)[nH]c(=O)c2Cc2c(O)ccc3ccccc23)cc1` ? bottom bin

The entry to classify is `Cc1ccc(NC(Nc2ccc(C)cc2C)=C(/C=C(\Cl)[N+](=O)[O-])[N+](=O)[O-])c(C)c1` ; which class holds it? top bin

Please classify: CCOP(=O)(OCC)OC1c2[nH]ccc2-c2cc(C(=O)OC)[nH]c2C1OC (stereo not given) bottom bin

Into which bin does this compound go? `Cc1cc(N(CCCOS(C)(=O)=O)CCCOS(C)(=O)=O)ccc1C=Nc1cc(Br)c(O)c(Br)c1` bottom bin

Which class does CCCCCCCCN(CCCCCCCC)CC(O)c1cc(-c2ccc(Cl)cc2)nc2c(Cl)cccc12 (stereo not given) fall in? bottom bin

For `c1ccc2c(c1)Cc1cc3ccccc3nc1-2` , which growth inhibition bin applies? middle bin

Please classify: `O=C(NN=C1CCCCC1)c1ccc([N+](=O)[O-])cc1` bottom bin

----------
test: NCI Yeast Anticancer Drug Screen. Data for the bub3 strain (AID 167); conditions: S. cerevisiae bub3 mutant strain, at 50.0 µM (retest, dose inferred, filed as 5.0), hits give high values
About 79,000 compounds went through this panel and 15% of them were active in at least one assay; those are over-represented in the sample as a whole.
propertyLabel: growth inhibition (%)
Give bare numbers, in %.

Field: example entries. Status: answers known.
{"compound": "CCN(C(=O)c1ccccc1C)C(c1ccccc1)P(=O)(c1ccccc1)c1ccccc1 (stereo unspecified)", "growth inhibition (%)": 96}
{"compound": "COc1ccccc1/C=C1\\C=Cc2ccccc21", "growth inhibition (%)": -1}

Record growth inhibition for all entries; do not skip any.
1. COc1ccc(C(=O)C2Cc3c(ccc4ccccc34)OC2=O)cc1 (stereo unspecified)
2. CCCCCN(CCCCC)C(C)C(=O)c1ccc2cc(Br)c3ccccc3c2c1 (stereo unspecified)
3. O=C(O)c1ccc2c(Br)ccc3c2c1CC3
4. Cc1cccc(N2C(c3ccccc3)c3ccc(C)cc3NS2=O)c1 (stereo unspecified)

1: -2; 2: 66; 3: 20; 4: -1

Batch of 5 compounds: report growth inhibition for each.
1. COc1ccc(CNc2nc3cc(C(F)(F)F)ccc3nc2C)cc1OC
2. O=C(O)/C=C/c1ccc2c(c1)CC1(Cc3ccccc3C1)C2
3. CN(C)CCCNc1c2ccccc2nc2ccc(F)cc12
4. O=C1CN(Cc2ccc(Cl)cc2)CC(=O)N2Cc3ccccc3CN12
5. COC(=O)c1ccc(NCc2c(O)ccc(O)c2Br)cc1Cl

[18, 92, 6, 6, 99]

----------
assay: NCI Yeast Anticancer Drug Screen. Data for the mlh1 rad18 strain (AID 175); conditions: S. cerevisiae mlh1 rad18 strain growth inhibition; at 50.0 µM; hits give high values
About 79,000 compounds went through this panel and 15% of them were active in at least one assay; those are over-represented in the sample as a whole.
propertyLabel: growth inhibition (%)
One number for each entry, in %.

Observe how each entry below is paired with its result.
{"compound": "COc1ccc(SC2=C(N(C)C(C)=O)C(=O)c3ccccc3C2=O)cc1", "propertyLabel": "growth inhibition", "assayResult": 99.6}
{"compound": "Clc1ccc(C(CCc2ccc(Br)cc2)Cn2ccnc2)c(Cl)c1 (stereo not drawn)", "propertyLabel": "growth inhibition", "assayResult": 99.5}
{"compound": "O=C(N/N=C/c1ccc2c(c1)OCO2)c1ccc([N+](=O)[O-])cc1", "propertyLabel": "growth inhibition", "assayResult": 57}
{"compound": "C=CCOc1cc(NC(=S)c2sccc2C)ccc1Cl", "propertyLabel": "growth inhibition", "assayResult": 81.9}
{"compound": "O=S(=O)(Nc1ccccc1)c1ccccc1C(O)(c1ccccc1)c1ccccc1", "propertyLabel": "growth inhibition", "assayResult": 95.5}

Look up growth inhibition for the entries below, preserving their order.
1. O=C1C=C(c2ccccc2)OC(c2ccccc2)C1 (stereo not drawn)
2. Nc1ncnc2nc(SCCO)[nH]c12
3. CC(=O)N1CCCC2=C1CCCCCCCCCC2
4. [N-]=[N+]=Nc1c(-c2ccccc2)c(Cl)nc2ccccc12
5. CCOc1c(N=Nc2ccc(Cl)cc2)c(-c2ccccc2)nn1C(=S)S

[27.3, 39.1, 13.8, 87.2, 94.4]

Look up growth inhibition for the entries below, preserving their order.
1. COC1=CC2=CCC3C(CCC4(C)C(C(C)=O)CCC34)C2(C)CC1 (stereo not drawn)
2. C[C@@H]1CN(CC2COc3ccccc3O2)[C@@H](C)CN1CC1COc2ccccc2O1 (stereo partly drawn)
3. CN(C)CC(C)(C)C(/C=C/c1ccccc1)=N\Nc1ccccc1

[51.1, 94.5, 98.3]

For each of the compounds below, note its growth inhibition.
1. OC1(c2ccccc2)CCN(c2c3ccccc3nc3ccccc23)CC1
2. C(=C\[P+](c1ccccc1)(c1ccccc1)c1ccccc1)/c1ccccc1
3. CC(=O)OCc1ccc2c(c1)C(O)NC(=O)O2 (stereo not drawn)
4. Oc1ccc(C2CCCCC2)cc1
5. O=C1N=c2ccc(Br)cc2=C1c1sc(=O)n(Cc2nc3ccccc3[nH]2)c1O
6. CCC(N)C(O)C(C)C (stereo not drawn)
7. CCCc1nc2c(nc1C)C(=O)C=CC2=O

1. 99.4
2. 99.1
3. 55.6
4. 93.8
5. 88.7
6. 10.6
7. 98.3

Dear colleague, could you send me growth inhibition for each of the items below? Thanks.
1. COC(O)C12OC3CO[Si](C(C)C)(C(C)C)O[Si](C(C)C)(C(C)C)OC3C1Oc1nc(=O)ccn12 (stereo not drawn)
2. CC(C)C1=CC[C@H]2C(=C1)CC[C@@H]1[C@]2(C)CCC[C@@]1(C)C(=O)O
3. O=C(Nc1ccccc1)O/N=C1/CCCC/C1=C\c1ccccc1
4. CCCCCCCCCCOC(=O)c1cc[n+](C)cc1
5. CCN(CC)CCO/N=C1\CC[C@H]2[C@@H]3CCc4cc(OC)ccc4[C@H]3CC[C@]12C

-69.8
77.1
84.1
-18.9
89.7

Quick request: growth inhibition for each listed item, please.
1. CC(=O)Oc1ccc(-c2ccccc2)cc1Br
2. Cc1cc(Cl)ccc1N1C(=O)C(=O)C(c2nc3ccccc3o2)C(=O)C1=O
3. [N-]=[N+]=Nc1c(-c2ccccc2)c(=O)n(-c2ccccc2)c2ccccc12
4. O=c1c(-c2ccccc2)c1-c1ccccc1
5. CSC(=S)N/N=C(C)/C=C/c1ccccc1

[98.1, 87.8, 86.4, 99, 95.3]

For each entry beneath this line, provide reported growth inhibition.
1. CCCCCC(O)C(C)CO (stereo not drawn)
2. CCOC(=O)C1=C(Nc2ccc(Cl)c(Cl)c2)OC/C1=N\NS(=O)(=O)c1ccc(C)cc1
3. Cc1ccc(NC(=S)SCc2ccc(Cl)cc2)cc1C
4. CC(C)=CCc1ccc(O)cc1
5. O=Cc1ccc(O)cc1O
6. CCCCOC(=O)c1nc(N(CC2CCCCC2)C(=O)NC)sc1NC(=O)NC

[14.4, 64.2, 98.6, 1.75, 59, 29.2]

// for each compound in input: emit growth inhibition
1. CC/S(=N\S(=O)(=O)c1ccc(C)cc1)c1cccc[n+]1[O-] (stereo not drawn)
2. COc1ccc2c(ccc[n+]2CC(=O)c2ccc(-c3ccccc3)cc2)c1
3. CCCCCCCCCCCC[n+]1cc2ccccc2cc1C
4. O=S(c1ccccc1)c1c(Cl)c(Cl)nc(Cl)c1Cl (stereo not drawn)
5. CCCCOC(c1ccccc1)N1CCCCC1 (stereo not drawn)
6. C=CCOc1ccc(-c2ccccc2)cc1C(=O)NC

1. 95.4
2. 40
3. 90.8
4. 99.5
5. 7.35
6. 22.1

List the reported growth inhibition of each compound below.
1. COc1cc(Br)c(CC(NC=O)c2ccc3c(c2)OCO3)cc1OC (stereo not drawn)
2. CN1C(/C=C/c2ccc(O)c3ncccc23)CCC2CCCC(O)C21 (stereo not drawn)
3. COc1ccc(CCCCC(=O)O)cc1O
4. Brc1ccc(C2c3ccccc3-c3ccccc32)cc1

56.5
95.4
28.4
94.8

Look up growth inhibition for the entries below, preserving their order.
1. CC1(CO)CCCC2(C)C1CCC1CC3C=CC12C1C(=O)OC(=O)C31 (stereo not drawn)
2. CS(=O)(=O)C(=Cc1ccccc1Cl)S(C)(=O)=O

1. 79.5
2. -28.1
